- study-system: TgDXR (Toxoplasma gondii, UniProt S8ESX0)
- Sequence (S8ESX0 entry or part of it): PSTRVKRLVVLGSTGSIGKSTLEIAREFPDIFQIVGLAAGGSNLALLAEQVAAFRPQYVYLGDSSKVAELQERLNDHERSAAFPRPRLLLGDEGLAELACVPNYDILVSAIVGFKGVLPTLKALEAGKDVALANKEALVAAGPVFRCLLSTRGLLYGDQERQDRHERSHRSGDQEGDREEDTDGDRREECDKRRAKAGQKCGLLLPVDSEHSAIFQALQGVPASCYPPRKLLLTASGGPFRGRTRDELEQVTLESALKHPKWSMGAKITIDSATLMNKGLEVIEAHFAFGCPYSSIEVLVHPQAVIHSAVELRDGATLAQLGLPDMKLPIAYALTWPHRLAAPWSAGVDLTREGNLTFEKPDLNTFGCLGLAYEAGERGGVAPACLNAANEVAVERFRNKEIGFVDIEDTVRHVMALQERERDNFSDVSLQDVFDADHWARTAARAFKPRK
- procedure-summary: T. gondii DXR enzyme inhibition assay (NADPH oxidation, absorption at 340 nm)
- Assay type: biochemical
- condition-info: 100 nM truncated His10-TgDXR, 100 µM NADPH, 4 mM MgCl2, 100 µM DXP, pH 7.5, 30°C; n = 6; read-out: IC50 ± S.D.
Criterion: IC50 strictly less than 2 µM. Met: True. Not met: False.

Worked examples follow.
CN(O)C(=O)COC(c1ccc(Cl)c(Cl)c1)P(=O)(O)O (stereo not drawn); False
CN(O)C(=O)CSC(c1ccc(F)c(F)c1)P(=O)(O)O (stereo not drawn); True
CN(O)C(=O)COC(c1ccc(F)c(F)c1)P(=O)(O)O (stereo not drawn); False
CN(O)C(=O)CSC(c1ccccc1)P(=O)(O)O (stereo not drawn); True
CN(O)C(=O)CSC(c1cc(F)cc(F)c1)P(=O)(O)O (stereo not drawn); False

Is IC50 of CN(O)C(=O)CSC(c1ccc(Cl)c(Cl)c1)P(=O)(O)O (stereo not drawn) strictly below 2 µM?
True

Decide: IC50 of CN(O)C(=O)COC(c1ccccc1)P(=O)(O)O (stereo not drawn) strictly below 2 µM?
False

Is the reported IC50 for Cc1ccc(C(OCC(=O)N(C)O)P(=O)(O)O)cc1 (stereo not drawn) strictly below 2 µM?
False

Consider COc1cc(OC)cc(C(SCC(=O)N(C)O)P(=O)(O)O)c1 (stereo not drawn) . Does its IC50 lie strictly below 2 µM?
False
